# SUBJECT_OF_TEST: Cytochrome P450 2C9 (Homo sapiens)
# PROCEDURE_DETAILS: blockers of cytochrome P450 2C9 activity – biochemical, luminescence, ADME assay, primary screen (AID 777)
# CONDITION_NOTES: CYP2C9 Supersomes, luciferin-H conversion, at 5 µM, active compounds read high
In all, about 96,000 compounds went through this assay and about 19,000 (20%) were called active. A selection follows.
MEASURED_ENDPOINT: inhibition (%)
Your answer should be a plain number; it is taken to be in %.

Asked: May I ask what inhibition has been recorded for CCC(=O)Nc1ccccc1C(=O)N1CCN(Cc2ccccc2)CC1 ?
Given back: 15.3

Asked: May I ask what inhibition has been recorded for Cc1cccc(Cn2c(N3CCN(c4ccccc4)CC3)nc3c2c(=O)n(C)c(=O)n3C)c1 ?
Given back: 66.1

Asked: May I ask what inhibition has been recorded for c1ccc(Nc2n[nH]nc2-c2ccccc2)cc1 ?
Given back: 28.9

Asked: May I ask what inhibition has been recorded for CCOc1ccc(Cn2c(SCCCCC#N)nc3c2c(=O)n(C)c(=O)n3C)cc1OCC ?
Given back: 31.1

Asked: May I ask what inhibition has been recorded for Cc1cccc(Cn2c(SCCO)nc3c2c(=O)n(C)c(=O)n3C)c1 ?
Given back: 54

For the next question, use this compound.
Asked: May I ask what inhibition has been recorded for CCCC(CCC(=O)OC)(C(=O)OCC)c1csc(N)n1 (stereo unspecified) ?
Given back: 30.1
